Test system: HEK-293T
assay_explanation: Incucyte cell viability with HEK293T; further: unitless GR value; below 1 slowed growth and below 0 cell loss
Format: toxicity, cell-based
condition_details: human, 12 h, 10 µM, compound concentration 10 uM, replicate number 2, timepoint 12 hours
Recorded measurements of Growth Rate, one per entry
Could you keep your reply to the number by itself?

Solved cases (8 shown):
- CC(C)(C)c1ccc(-c2coc3ccc(-c4cn[nH]c4)nc23)cc1: 0.39
- Cc1ccc(OCC(O)C(C)NC(C)C)c2c1CCC2.Cl (centres undefined): 0.63
- O=C(Nc1cc(C(F)(F)F)ccc1N1CCN(Cc2ccccn2)CC1)c1ccc(-c2ccncc2)o1: -0.05
- COc1cccc2c1c(NS(=O)(=O)c1ccc(Cl)s1)nn2Cc1cccc(CNC(=O)C(C)(C)O)c1: 0.47
- Nc1nc(Nc2ccccc2)nc2c1ncn2[C@@H]1O[C@H](CO)[C@@H](O)[C@H]1O: 0.63
- Cc1cc(C)cc([C@@H]2c3cc(C)ccc3NC(=O)CN2C(=O)c2ccc(Br)s2)c1: 0.79
- Br.Oc1cc2c(cc1O)C(c1ccccc1)CNCC2 (centres undefined): 0.43
- CN(C)CCN(Cc1ccc(-c2ccc(CNCCc3ccccc3)cc2)cc1)C(=O)CCC1CCCC1.Cl.Cl: -0.78

## Input Let me know recorded Growth Rate for `CCCCCCCCCCCCC/C=C/[C@@H](O)[C@@H](N)COP(=O)(O)O` , thanks.
## Output 0.22

## Input Let me know recorded Growth Rate for `Br.Br.c1ncc(CC2CCNCC2)[nH]1` , thanks.
## Output 0.73

## Input Let me know recorded Growth Rate for `COCCN1CCC(c2cc(CN(C)C(=O)c3cccc(Oc4ccccc4)c3)ccn2)CC1` , thanks.
## Output 0.93

## Input Let me know recorded Growth Rate for Cc1ccccc1C(=O)Nc1ccc(C(=O)N2CCCC(N(C)C)c3ccccc32)cc1.Cl (centres undefined) , thanks.
## Output -0.03

## Input Let me know recorded Growth Rate for `CCCCCCCCc1ccc(CC[C@](N)(CO)COP(=O)(O)O)cc1` , thanks.
## Output 0.46

## Input Let me know recorded Growth Rate for `COc1cc(/C=C/C(=O)NCCn2c(C)cc3ccccc32)cc(OC)c1OC` , thanks.
## Output 0.51

## Input Let me know recorded Growth Rate for `Cc1cc(=O)n(C)c2cc(N3C(=O)CC[C@H](NS(=O)(=O)CC(C)C)[C@H]3c3ccc(Cl)cc3)ccc12` , thanks.
## Output 0.9

## Input Let me know recorded Growth Rate for `CCOC(=O)c1c(/C(C#N)=C\N)c2ccc(Cl)c(Cl)c2n1C` , thanks.
## Output 0.77

## Input Let me know recorded Growth Rate for `CC(=O)O[C@H]1C(=O)[C@@]2(C)[C@H]([C@H](OC(=O)c3ccccc3)[C@]3(O)C[C@H](OC(=O)[C@H](O)[C@@H](NC(=O)c4ccccc4)c4ccccc4)C(C)=C1C3(C)C)[C@]1(OC(C)=O)CO[C@@H]1C[C@@H]2O` , thanks.
## Output -0.18

## Input Let me know recorded Growth Rate for `CN(c1ncccc1CNc1ccnc(-c2cc3cc(Cl)ccc3[nH]2)n1)S(C)(=O)=O` , thanks.
## Output -0.31

## Input Let me know recorded Growth Rate for Br.Cc1cccc(C2CN(C)CCc3c2cc(O)c(O)c3Cl)c1 (centres undefined) , thanks.
## Output 0.8

###

Recorded measurements of Growth Rate, one per entry
System: U2OS
assay_explanation: Incucyte cell viability with U2OS; further: unitless GR value; below 1 slowed growth and below 0 cell loss
Assay type: toxicity, cell-based
condition_details: human, 12 h, 10 µM, compound concentration 10 uM, replicate number 2, timepoint 12 hours
Could you keep your reply to the number by itself?

Solved cases (3 shown):
* CS(=O)(=O)c1ccc(C(=O)Nc2ccc(Cl)c(-c3ccccn3)c2)c(Cl)c1 [VISMODEGIB] | 0.78
* O=C1[C@H](Cc2ccc(O)cc2)N2C(=O)CCN(C(=O)NCc3ccccc3)[C@H]2CN1Cc1cccc2ccccc12 | 0.6
* Cc1cc(=O)n(C)c2cc(N3C(=O)CC[C@H](NS(=O)(=O)CC(C)C)[C@H]3c3ccc(Cl)cc3)ccc12 | 0.96

Please turn your attention to the following entry.
## Input Let me know recorded Growth Rate for `CN(C)C(=O)Cn1cc(-c2ccc(-c3cncc4ccccc34)cc2)cn1` , thanks.
## Output 0.74

###

Recorded measurements of Growth Rate, one per entry
Test system: U2OS
assay_explanation: Incucyte cell viability with U2OS; further: unitless GR value; below 1 slowed growth and below 0 cell loss
Type: toxicity, cell-based
condition_details: human, 24 h, 10 µM, compound concentration 10 uM, replicate number 2, timepoint 24 hours
Could you keep your reply to the number by itself?

Solved cases (6 shown):
• CC(=O)NCC(=O)N1[C@@H]2CC[C@H]1c1ccc(Nc3ncc(C(F)(F)F)c(NC4CCC4)n3)cc12 = 0.12
• CC(=O)NCCc1c(Cc2ccccc2)[nH]c2ccccc12 = 0.88
• S=C(NCCCc1c[nH]cn1)NCCCN(Cc1ccc(Cl)c(Cl)c1)c1ccc(Br)cn1 = 0.67
• Cn1cnc(-c2cc3nccc(Oc4ccc(NC(=S)NC(=O)Cc5ccccc5)cc4F)c3s2)c1 = 0.98
• Cn1cc(-c2ccc3occ(-c4cccc(-c5ccncc5)c4)c3n2)cn1 = 0.09
• O=c1c2cccn2c2ccccc2n1CCCN1CCC(c2ccc(Cl)cc2)CC1 = 0.8

## Input Let me know recorded Growth Rate for `CC(C)c1cc(-c2ccc(F)c3ccccc23)nc(N)n1` , thanks.
## Output 0.89

## Input Let me know recorded Growth Rate for `O=C(CCCc1ccccc1)Nc1nc2ccccc2c(=O)s1` , thanks.
## Output 0.84

## Input Let me know recorded Growth Rate for `Cc1onc(-c2ccccc2Cl)c1C(=O)N(C)c1ccc(Cl)cc1` , thanks.
## Output 0.96

## Input Let me know recorded Growth Rate for `CO[C@H]1CNC[C@@H](OCC2CCC(F)(F)CC2)[C@@H]1Nc1ncc(-c2cncc(C)c2)c2cc(C)c(=O)[nH]c12` , thanks.
## Output 1

## Input Let me know recorded Growth Rate for Cc1ccccc1C(=O)Nc1ccc(C(=O)N2CCCC(N(C)C)c3ccccc32)cc1.Cl (centres undefined) , thanks.
## Output -0.08

## Input Let me know recorded Growth Rate for `CN[C@@H]1C[C@H]2O[C@@](C)([C@@H]1OC)n1c3ccccc3c3c4c(c5c6ccccc6n2c5c31)C(=O)NC4` , thanks.
## Output 0.49

## Input Let me know recorded Growth Rate for `CCNC(=O)[C@H]1O[C@@H](n2cnc3c(N)nc(NCCc4ccc(CCC(=O)O)cc4)nc32)[C@H](O)[C@@H]1O.Cl` , thanks.
## Output 0.97

## Input Let me know recorded Growth Rate for `Cc1cc(C)cc([C@@H]2c3cc(C)ccc3NC(=O)CN2C(=O)c2ccc(Br)s2)c1` , thanks.
## Output 0.89

## Input Let me know recorded Growth Rate for `N#Cc1c(N)nc(SCc2csc(-c3ccc(Cl)cc3)n2)c(C#N)c1-c1ccc(OCCO)cc1` , thanks.
## Output 0.83

## Input Let me know recorded Growth Rate for `COc1ccc2cc(S(=O)(=O)N[C@H](CC(=O)N[C@H](Cc3ccc(CN4[C@H](C)CCC[C@@H]4C)cc3)C(=O)N(C)C(C)C)c3ccc4c(c3)OCO4)ccc2c1.Cl` , thanks.
## Output 0.53

## Input Let me know recorded Growth Rate for `O=C(O)c1ccccc1S(=O)(=O)NCCCCN1C(=O)c2cccc3cccc(c23)C1=O` , thanks.
## Output 0.75

## Input Let me know recorded Growth Rate for `COc1cc(NC(=O)CCN2CCC(OC(=O)Nc3ccccc3-c3ccccc3)CC2)c(Cl)cc1CNC[C@H](O)c1ccc(O)c2[nH]c(=O)ccc12` , thanks.
## Output 0.9

## Input Let me know recorded Growth Rate for CCC(=O)OCC(=O)[C@@]1(OC(=O)CC)[C@@H](C)C[C@H]2[C@@H]3CCC4=CC(=O)C=C[C@]4(C)[C@@]3(Cl)[C@@H](O)C[C@@]21C [BECLOMETHASONE DIPROPIONATE] , thanks.
## Output 0.9

## Input Let me know recorded Growth Rate for `CSc1nc(NC2CCCC2)c([N+](=O)[O-])c(NC2CCCC2)n1` , thanks.
## Output 0.92

## Input Let me know recorded Growth Rate for COC(=O)N1CCN(C(=O)Cc2ccc(Cl)c(Cl)c2)C(CN2CCCC2)C1.O=C(O)/C=C/C(=O)O (centres undefined) , thanks.
## Output 0.76

## Input Let me know recorded Growth Rate for `CCC(=O)N1CC[C@H](Nc2ncnc3c2CN(c2cnc(OC)c(C(F)(F)F)c2)CC3)C1` , thanks.
## Output 0.79

## Input Let me know recorded Growth Rate for `OC[C@H]1O[C@@H](n2cnc3c(NC4CCCC4)ncnc32)[C@H](O)[C@@H]1O` , thanks.
## Output 1

## Input Let me know recorded Growth Rate for `C[C@@H](OC[C@@]1(c2ccccc2)CC[C@]2(CCC(=O)N2)CN1)c1cc(C(F)(F)F)cc(C(F)(F)F)c1` , thanks.
## Output 0.64

## Input Let me know recorded Growth Rate for `COc1ccc(-n2c(C)c([N+](=O)[O-])c3ccc(O)cc32)cc1` , thanks.
## Output 0.67
